Taken from ChEMBL document CHEMBL1125407.

# Target: Serotonin 2 (5-HT2) receptor (Rattus norvegicus, UniProt P30994+P08909+P14842)
# Measurement description: Inhibition of [3H]ketanserin binding to […] 5-hydroxytryptamine 2 receptor
# Assay type: protein assay
Measured metric: IC50

| Cpd smiles | Target | Measured metric | Endpoint result |
| --- | --- | --- | --- |
| OCCN1CCN(c2cn(-c3ccc(F)cc3)c3ccc(C(F)(F)F)cc23)CC1 | Serotonin 2 (5-HT2) receptor (Rattus norvegicus, UniProt P30994+P08909+P14842) | IC50 | 1.4 nM |
| CN1CC=C(c2cn(-c3ccc(F)cc3)c3ccc([N+](=O)[O-])cc23)CC1 | Serotonin 2 (5-HT2) receptor (Rattus norvegicus, UniProt P30994+P08909+P14842) | IC50 | 1.9 nM |
| O=C1NCCN1CCN1CCN(c2cn(-c3ccc(F)cc3)c3ccc(Cl)cc23)CC1 | Serotonin 2 (5-HT2) receptor (Rattus norvegicus, UniProt P30994+P08909+P14842) | IC50 | 4.4 nM |
| O=C1NCCN1CCCCCCN1CCC(c2cn(-c3ccc(F)cc3)c3ccc(Cl)cc23)CC1 | Serotonin 2 (5-HT2) receptor (Rattus norvegicus, UniProt P30994+P08909+P14842) | IC50 | 2.5 nM |
| CN1CC=C(c2cn(-c3ccc(F)cc3)c3ccc(Cl)cc23)CC1 | Serotonin 2 (5-HT2) receptor (Rattus norvegicus, UniProt P30994+P08909+P14842) | IC50 | 0.53 nM |
| CN1CC=C(c2cn(-c3ccc(F)cc3)c3ccc(F)cc23)CC1 | Serotonin 2 (5-HT2) receptor (Rattus norvegicus, UniProt P30994+P08909+P14842) | IC50 | 3 nM |
| O=C1NCCN1CCN1CCC(c2cn(-c3ccc(F)cc3)c3ccc(Cl)cc23)(c2cn(-c3ccc(F)cc3)c3ccc(Cl)cc23)CC1 | Serotonin 2 (5-HT2) receptor (Rattus norvegicus, UniProt P30994+P08909+P14842) | IC50 | 120 nM |
| CN1CCN(c2cn(-c3ccc(F)cc3)c3ccc(Cl)cc23)CC1 | Serotonin 2 (5-HT2) receptor (Rattus norvegicus, UniProt P30994+P08909+P14842) | IC50 | 0.3 nM |

---

# Target: UniProt P61169
# Sequence (P61169 whole entry): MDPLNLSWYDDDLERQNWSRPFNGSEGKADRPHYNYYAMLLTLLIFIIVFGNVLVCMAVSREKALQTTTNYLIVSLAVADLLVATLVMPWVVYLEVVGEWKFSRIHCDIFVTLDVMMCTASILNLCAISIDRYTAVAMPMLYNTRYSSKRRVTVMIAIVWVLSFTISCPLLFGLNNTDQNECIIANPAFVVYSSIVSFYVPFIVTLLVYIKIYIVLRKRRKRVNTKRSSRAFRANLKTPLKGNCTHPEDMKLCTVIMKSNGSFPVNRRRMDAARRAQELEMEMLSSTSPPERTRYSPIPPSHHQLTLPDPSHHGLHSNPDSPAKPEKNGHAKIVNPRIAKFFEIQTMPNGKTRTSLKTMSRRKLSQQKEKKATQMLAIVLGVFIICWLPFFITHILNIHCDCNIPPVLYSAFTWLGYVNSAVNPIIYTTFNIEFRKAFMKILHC
# Measurement description: Tested in vivo for induction of catalepsy against D2 receptor in rats
# Format: functional, organism-based
# note: exactly 2 µmol/kg is not below, so it is NO; use YES for ED50 strictly under it

| Compound | Discrete label |
| --- | --- |
| O=C1NCCN1CCN1CC=C(c2cn(-c3ccc(F)cc3)c3ccc(Cl)cc23)CC1 | NO |
| O=C1NCCN1CCN1CCC(c2cn(-c3ccc(F)cc3)c3ccccc23)CC1 | NO |
| Fc1ccc(-n2cc(C3=CCNCC3)c3cc(Cl)ccc32)cc1 | NO |
| OCCN1CCN(c2cn(-c3ccc(F)cc3)c3ccc(C(F)(F)F)cc23)CC1 | YES |
| O=C1NCCN1CCN1CC=C(c2cn(-c3ccc(F)cc3)c3ccc(C(F)(F)F)cc23)CC1 | YES |
| OCCN1CCN([C@@H]2C[C@@H](c3ccc(F)cc3)c3ccc(C(F)(F)F)cc32)CC1 (racemic) [TEFLUDAZINE] | YES |
| Fc1ccc(-n2cc(C3=CCNCC3)c3cc(C(F)(F)F)ccc32)cc1 | NO |
| O=C1NCCN1CCN1CCC(c2cn(-c3ccc(F)cc3)c3ccc(Br)cc23)CC1 | NO |
| CS(=O)(=O)c1ccc2c(c1)c(C1CCN(CCN3CCNC3=O)CC1)cn2-c1ccc(F)cc1 | NO |
| O=C1NCCN1CCCN1CCC(c2cn(-c3ccc(F)cc3)c3ccc(Cl)cc23)CC1 | NO |
| Cc1ccc2c(c1)c(C1CCN(CCN3CCNC3=O)CC1)cn2-c1ccc(F)cc1 | NO |
| CN1CC=C(c2cn(-c3ccc(F)cc3)c3ccc(F)cc23)CC1 | YES |
| O=C1NCCN1CCN1CCN(c2cn(-c3ccc(F)cc3)c3ccc(Cl)cc23)CC1 | NO |
| COc1ccc2c(c1)c(C1CCN(CCN3CCNC3=O)CC1)cn2-c1ccc(F)cc1 | NO |
| O=C1NCCN1CCN1CCC(c2cn(-c3ccc(F)cc3)c3ccc(F)cc23)CC1 | NO |
| CN1CCN(c2cn(-c3ccc(F)cc3)c3ccc(Cl)cc23)CC1 | YES |
| O=C1NCCN1CCCCCCN1CCC(c2cn(-c3ccc(F)cc3)c3ccc(Cl)cc23)CC1 | NO |
| O=C1NCCN1CCN1CCC(c2cn(-c3ccc(F)cc3)c3ccc(Cl)cc23)CC1 [SERTINDOLE] | NO |
| CN1CCN(CCN2CCC(c3cn(-c4ccc(F)cc4)c4ccc(Cl)cc34)CC2)C1=O | NO |
| CN1CC=C(c2cn(-c3ccc(F)cc3)c3ccc(Cl)cc23)CC1 | YES |
| CN1CC=C(c2cn(-c3ccc(F)cc3)c3ccccc23)CC1 | NO |
| O=C1NCCN1CCN1CCC(c2cn(-c3ccc(F)cc3)c3ccc(C(F)(F)F)cc23)CC1 | NO |
| CC(C)N1CCN(CCN2CCC(c3cn(-c4ccc(F)cc4)c4ccc(Cl)cc34)CC2)C1=O | NO |
| OCCN1CCC(c2cn(-c3ccc(F)cc3)c3ccc(Cl)cc23)CC1 | NO |
| CN1CC=C(c2cn(-c3ccc(F)cc3)c3ccc([N+](=O)[O-])cc23)CC1 | YES |
